study target: Neuropeptide FF receptor 2 (Homo sapiens, UniProt Q9Y5X5)
Sequence (Q9Y5X5 whole entry): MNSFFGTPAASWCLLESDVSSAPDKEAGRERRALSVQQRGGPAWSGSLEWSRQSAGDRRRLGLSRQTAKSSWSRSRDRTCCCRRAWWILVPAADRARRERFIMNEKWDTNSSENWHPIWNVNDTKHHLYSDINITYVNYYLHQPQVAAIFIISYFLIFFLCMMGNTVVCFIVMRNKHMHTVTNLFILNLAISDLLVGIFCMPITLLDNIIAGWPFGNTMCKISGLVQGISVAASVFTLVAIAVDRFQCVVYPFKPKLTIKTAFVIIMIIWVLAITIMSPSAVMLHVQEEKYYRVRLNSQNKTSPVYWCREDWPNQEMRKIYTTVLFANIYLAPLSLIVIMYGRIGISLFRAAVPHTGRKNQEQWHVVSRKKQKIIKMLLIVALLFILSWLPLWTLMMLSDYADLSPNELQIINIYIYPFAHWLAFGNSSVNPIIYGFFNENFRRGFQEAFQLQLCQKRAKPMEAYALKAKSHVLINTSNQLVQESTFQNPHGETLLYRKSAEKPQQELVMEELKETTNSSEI
assay details: Binding affinity to human NPFF2 receptor expressed in CHO cell membranes after 1 hr by liquid scintillation spectrophotometric counting
property: Kd (nM)

[[record]]
substance = "H-EYWSLAAPQRF-NH2"
endpoint_unit = "nM"
result_number = 0.54


* * *

Some molecules, each annotated with its measured Ki.
study target: Neurotensin receptor type 1 (Homo sapiens, UniProt P30989)
Sequence (P30989 whole entry): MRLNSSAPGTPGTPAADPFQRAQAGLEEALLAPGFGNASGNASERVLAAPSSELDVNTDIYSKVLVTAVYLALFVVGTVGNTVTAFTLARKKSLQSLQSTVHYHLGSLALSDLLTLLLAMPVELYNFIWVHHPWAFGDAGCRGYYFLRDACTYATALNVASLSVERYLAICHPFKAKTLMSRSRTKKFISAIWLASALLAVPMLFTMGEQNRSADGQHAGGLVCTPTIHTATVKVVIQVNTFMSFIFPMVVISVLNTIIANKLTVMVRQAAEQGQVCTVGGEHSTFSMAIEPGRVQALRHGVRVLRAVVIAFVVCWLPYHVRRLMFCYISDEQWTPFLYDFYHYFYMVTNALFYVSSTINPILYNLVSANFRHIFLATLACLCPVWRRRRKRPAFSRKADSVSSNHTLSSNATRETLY
assay details: Displacement of [3H]-{Nomega-[N-(4-propanoylaminobutyl)aminocarbonyl]}Arg-Arg-ProTyr-Ile-Leu-OH Tris(hydrotrifluoroacetate) from NTSR1 in human HT-29 cells after 2 hrs by liquid scintillation counting
Type: cell-based
*1 amine or outer side, *2 acyl side, *3 side chain or, on linkers, in order; H or OH if unused. Where a SMILES comes first, the peptide text is derived from it. [ ]: non-standard residue; d: D form. X3 = NCCOCCOCCNC(=O)/N=C(\N)NCCC[C@H](N[*:1])C(=O)[*:2]; X4 = NCCOCCOCCNC(=O)/N=C(/N)NCCC[C@H](N[*:1])C(=O)[*:2]; X2 = NCCCCNC(=O)/N=C(\N)NCCC[C@H](N[*:1])C(=O)[*:2]
property: Ki (nM)

[[record]]
molecule = "CC[C@H](C)[C@H](NC(=O)[C@H](Cc1ccc(O)cc1)NC(=O)[C@@H]1CCCN1C(=O)[C@H](CCCNC(=N)N)NC(=O)[C@@H](N)CCCN/C(N)=N/C(=O)NCCOCCOCCN)C(=O)N[C@@H](CC(C)C)C(=O)O (H-[X3]RPYIL-OH)"
property = "Ki"
result_number = 0.26

[[record]]
molecule = "CC[C@H](C)[C@H](NC(=O)[C@H](Cc1ccc(O)cc1)NC(=O)[C@@H]1CCCN1C(=O)[C@H](CCCN/C(N)=N\\C(=O)NCCOCCOCCN)NC(=O)[C@@H](N)CCCNC(=N)N)C(=O)N[C@@H](CC(C)C)C(=O)O (H-R[X4]PYIL-OH)"
property = "Ki"
result_number = 0.36

[[record]]
molecule = "CC[C@H](C)[C@H](NC(=O)[C@H](Cc1ccc(O)cc1)NC(=O)[C@@H]1CCCN1C(=O)[C@H](CCCNC(=N)N)NC(=O)[C@@H](N)CCCN/C(N)=N/C(=O)NCCCCN)C(=O)N[C@@H](CC(C)C)C(=O)O.O=C(O)C(F)(F)F.O=C(O)C(F)(F)F.O=C(O)C(F)(F)F.O=C(O)C(F)(F)F (H-[X2]RPYIL-OH)"
property = "Ki"
result_number = 0.47


* * *

study target: Type-1 angiotensin II receptor (Homo sapiens)
Sequence (P30556 whole entry): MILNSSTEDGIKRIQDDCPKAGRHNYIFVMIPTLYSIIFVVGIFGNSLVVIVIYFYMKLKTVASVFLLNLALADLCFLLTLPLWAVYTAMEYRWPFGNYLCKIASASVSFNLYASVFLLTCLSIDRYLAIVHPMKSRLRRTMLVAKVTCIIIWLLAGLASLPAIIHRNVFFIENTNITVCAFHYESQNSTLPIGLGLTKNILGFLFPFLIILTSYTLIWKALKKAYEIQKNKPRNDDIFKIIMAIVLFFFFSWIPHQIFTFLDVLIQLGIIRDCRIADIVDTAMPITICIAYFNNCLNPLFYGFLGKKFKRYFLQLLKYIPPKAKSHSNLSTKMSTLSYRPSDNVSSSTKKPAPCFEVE
assay details: Displacement of [3H]-Angiotensin 2 from human AT1 receptor transfected in CHOK1 cells preincubated for 30 mins with bovine serum albumin followed by radioligand addition by liquid scintillation counting
Assay type: cell-based, CHO-K1
property: IC50 (nM)

[[record]]
sample_smiles = "CCOc1nc2cccc(C(=O)O)c2n1Cc1ccc(-c2ccccc2-c2nnn[nH]2)cc1"
result_number = 0.69


* * *

study target: Neuropeptide FF receptor 2 (Homo sapiens, UniProt Q9Y5X5)
assay details: Displacement of [3H]EYE from human NPFF2 receptor expressed in CHO cell membranes after 1 hr by liquid scintillation spectrophotometric counting
property: Ki (nM)

[[record]]
substance = "H-EYWSLAAPQRF-NH2"
property = "Ki"
endpoint_unit = "nM"
result_number = 0.53


The origin of these recorded values is ChEMBL document CHEMBL3784921.
